The reported measurements were obtained from paper PMC6206036.

# System: Complex I (proton-pumping NADH:ubiquinone oxidoreductase) (Yarrowia lipolytica, UniProt Q9B6C7+Q9B6E8+Q9UUT7+Q9UUU1)
# Construct: gene nucm; native complete respiratory complex I in unsealed mitochondrial membranes; nugm-Htg2 (tagged NUGM) strain background; NUKM expressed from replicative plasmid pUB4 under endogenous promoter; 14 central plus accessory subunits; with NADH-ubiquinone oxidoreductase 51 kDa subunit, mitochondrial
# Experimental Details: inhibition of dNADH:DBQ oxidoreductase activity, mitochondrial membranes
# Format: biochemical
# Assay Setup: 100 µM dNADH, 100 µM DBQ, pH 8.5, 25 °C; membranes preincubated with 5 mM DTT for 5 min; read-out: IC50^e / DQA /
Measurement Type: IC50 (nM)
Numbers only, in nM.

INPUT: Name the reported IC50 value associated with the molecule CCCCCCCCCCc1nc(N)c2ccccc2n1
OUTPUT: 16

---

# System: Complex I (proton-pumping NADH:ubiquinone oxidoreductase) (Yarrowia lipolytica, UniProt Q9B6C7+Q9B6E8+Q9UUT7+Q9UUU1)
# Construct: gene nucm; native complete respiratory complex I in unsealed mitochondrial membranes; nugm-Htg2 (tagged NUGM) strain background; NUKM expressed from replicative plasmid pUB4 under endogenous promoter; 14 central plus accessory subunits; with NADH-ubiquinone oxidoreductase 51 kDa subunit, mitochondrial
# Experimental Details: inhibition of dNADH:DBQ oxidoreductase activity, mitochondrial membranes
# Assay type: biochemical
# Assay Setup: 100 µM dNADH, 100 µM DBQ, pH 8.5, 25 °C; membranes preincubated with 5 mM DTT for 5 min (ND3-PSST disulfide reduced)
Measurement Type: pIC50
Answers are plain numbers, as −log10 of the molar value.

INPUT: Name the reported pIC50 value associated with the compound CCCCCCCCCCc1nc(N)c2ccccc2n1
OUTPUT: 7.89
